system: Ileum; experiment: tissue or blood; type: functional, tissue-based; conditions: Cavia porcellus, 0.75 h
property label: IC50

Sample COc1cc(C(=S)Nc2cccc(NC(=S)c3cc(OC)c(OC)c(OC)c3)c2)cc(OC)c1OC ; IC50 observed: > 100 µM

Reference source: ChEMBL document CHEMBL1641458
